System: VEGF-121 (Homo sapiens), P15692-9
Sequence: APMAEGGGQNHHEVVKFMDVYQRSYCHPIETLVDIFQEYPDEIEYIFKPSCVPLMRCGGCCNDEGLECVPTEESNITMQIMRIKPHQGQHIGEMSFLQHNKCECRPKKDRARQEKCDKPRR
Protocol Summary: filter
Condition Details: NapdU at P; 2'-OMe 27
Property Measured: pKd
# pKd: negative log10 of molar concentration; output just the value

## Task # get_value(readout= pKd, system= VEGF-121 (Homo sapiens), P15692-9) for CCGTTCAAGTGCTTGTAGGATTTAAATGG [4867-31_163]
## Result 9.59

* * *

Tested on: VEGF-121 (Homo sapiens), P15692-9
Sequence: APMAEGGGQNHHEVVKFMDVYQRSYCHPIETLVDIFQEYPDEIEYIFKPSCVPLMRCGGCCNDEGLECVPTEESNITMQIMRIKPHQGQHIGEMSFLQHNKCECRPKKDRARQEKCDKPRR
Protocol Summary: filter
Condition Details: as 4867-31_192; PS 24,25
Property Measured: pKd
// pKd is dimensionless: -log10 of concentration (M)

## Task # pKd lookup, item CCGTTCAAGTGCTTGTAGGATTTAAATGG [4867-31_483]
## Result 10.49

* * *

Tested on: VEGF-121 (Homo sapiens), P15692-9
Sequence: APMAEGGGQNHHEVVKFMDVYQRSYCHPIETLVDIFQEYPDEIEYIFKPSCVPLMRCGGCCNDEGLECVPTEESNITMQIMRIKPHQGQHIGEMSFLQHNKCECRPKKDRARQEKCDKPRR
Protocol Summary: filter
Condition Details: P=Nap-dU; C3 spacer at 5
Property Measured: Kd (nM)
I only need the number, in nM, no unit after it.

## Task Recorded Kd for CCCTCATCAGCCGTTCAAGTGCTTGTAGGATTTAAATGGAATTGGAGGA [4867-15_28] , please?
## Result 0.34

* * *

Target Desc: PDGF-BB (platelet-derived growth factor BB) (Homo sapiens) (UniProt P01127)
Sequence (P01127 82-190): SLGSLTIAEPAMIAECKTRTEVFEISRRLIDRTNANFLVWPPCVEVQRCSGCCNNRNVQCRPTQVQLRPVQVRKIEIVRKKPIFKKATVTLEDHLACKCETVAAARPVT
Protocol Summary: filter
Condition Details: PDGF-VEGF, no Heg linker; NapdU, BndU
Property Measured: Kd (pM)
The reply should be a number in pM, with the unit left off.

## Task Would you kindly share the measured Kd for TTACGTTACACGCGTTTATAGCGCCGTTCAAGTGCTTTAGATTTAAATG [4149-8_317] ?
## Result 63.8

* * *

Target Desc: PDGF-BB (platelet-derived growth factor BB) (Homo sapiens) (UniProt P01127)
Protocol Summary: filter
Condition Details: Nap-dU, Bn-dU, MBn-dU, 2'-OMe, C3; 4 Heg between parts
Property Measured: Kd (pM)
Respond numerically; units are pM and should not be typed.

## Task Requested field: Kd. Item: CCGTTCAAGTGCTTGTAGGATTTAAATGGTTACGTTACCGCGTTTATAGCG [4149-8_411]
## Result 7.2

* * *

System: VEGF-121 (Homo sapiens), P15692-9
Sequence: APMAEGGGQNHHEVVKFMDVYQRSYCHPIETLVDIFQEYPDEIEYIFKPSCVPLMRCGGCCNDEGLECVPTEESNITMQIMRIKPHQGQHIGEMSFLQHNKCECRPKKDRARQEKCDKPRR
Protocol Summary: filter
Condition Details: as 4867-31_192; PS 3' of 11; 3' inverted dT
Property Measured: Kd (pM)
Note: unit pM is implicit; provide only the numeric part.

## Task For the sequence shown here, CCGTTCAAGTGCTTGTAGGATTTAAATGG [4867-31_417] , give the reported Kd.
## Result 9.4

* * *

Test system: VEGF-121 (Homo sapiens), P15692-9
Sequence: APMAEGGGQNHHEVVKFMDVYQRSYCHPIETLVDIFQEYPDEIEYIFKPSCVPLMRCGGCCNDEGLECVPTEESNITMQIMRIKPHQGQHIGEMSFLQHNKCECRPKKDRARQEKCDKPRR
Protocol Summary: filter
Condition Details: as 4867-31_192; PS 3' of 2; 3' inverted dT
Property Measured: pKd
For clarity, pKd is expressed as the negative log10 of concentration in mol/L.

## Task Value lookup for pKd; key = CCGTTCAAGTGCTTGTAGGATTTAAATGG [4867-31_410]
## Result 10.80

* * *

Target Desc: PDGF-BB (platelet-derived growth factor BB) (Homo sapiens)
Protocol Summary: filter
Condition Details: NapdU at 9,13,19,21; dT at 11; dT substitution
Property Measured: pKd
Would you please state pKd, meaning minus log10 of the concentration in mol/L, as a bare number?

## Task Returns the measured pKd for the input sequence. Input: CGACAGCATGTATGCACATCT [5169-4_55]
## Result 8.11

* * *

Tested on: VEGF-121 (Homo sapiens), P15692-9
Sequence: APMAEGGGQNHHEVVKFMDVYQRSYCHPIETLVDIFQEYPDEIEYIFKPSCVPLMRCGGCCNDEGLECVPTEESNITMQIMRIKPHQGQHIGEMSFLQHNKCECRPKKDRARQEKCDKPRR
Protocol Summary: filter
Condition Details: P=Nap-dU; C3 spacer at 28
Property Measured: pKd
Please note pKd is a logarithmic value: minus log10 of concentration in mol/L. Answer with that number alone.

## Task So what's the measured pKd for this one? CCCTCCATCAGCCGTTCAAGTGCTTGTGGATTTAAATGGAATTGGAGGA [4867-15_51]
## Result 8.80

* * *

Target Desc: PDGF-BB (platelet-derived growth factor BB) (Homo sapiens)
Protocol Summary: filter
Condition Details: Bn-dU; Heg5; 2'-OMe A3, A9, A11, A21, G24
pKd: −log10 of the molar value.
Property Measured: pKd

## Task Could you share which pKd value was measured for TTACGTTACACGCGTTTATAGCG [4149-8_244] ?
## Result < 8.00

* * *

Target Desc: PDGF-BB (platelet-derived growth factor BB) (Homo sapiens)
Protocol Summary: filter
Condition Details: NapdU at P; 2'-OMe 5,20,21
Property Measured: Kd (nM)
Field: numeric (nM). Do not append units.

## Task Name the recorded Kd for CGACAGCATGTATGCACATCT [5169-4_124] .
## Result 0.6

* * *

Tested on: VEGF-121 (Homo sapiens), P15692-9
Sequence: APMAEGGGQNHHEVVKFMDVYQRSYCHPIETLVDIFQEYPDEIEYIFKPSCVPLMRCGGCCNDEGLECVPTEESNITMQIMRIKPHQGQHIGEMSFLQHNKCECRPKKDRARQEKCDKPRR
Protocol Summary: filter
Condition Details: as 4867-31_192; PS 3' of 18; 3' inverted dT
Property Measured: Kd (pM)
Give the quantity in pM, number only.

## Task Reported Kd for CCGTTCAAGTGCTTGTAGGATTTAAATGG [4867-31_443] : what is it?
## Result 8.5

* * *

Test system: VEGF-121 (Homo sapiens), P15692-9
Sequence: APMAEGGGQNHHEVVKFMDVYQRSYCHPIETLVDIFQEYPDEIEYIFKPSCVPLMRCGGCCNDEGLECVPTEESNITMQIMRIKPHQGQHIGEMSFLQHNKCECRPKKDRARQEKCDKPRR
Protocol Summary: filter
Condition Details: PDGF-5Heg-VEGF; NapdU, 2'-OMe
Property Measured: Kd (nM)
Reply with just the number (in nM).

## Task Sample CGACAGCATGTATGCACATCTCCGTTCAAGTGCTTGTAGGATTTAAATGG [5169-4_100] — what was its Kd?
## Result 0.056

* * *

Target Desc: PDGF-BB (platelet-derived growth factor BB) (Homo sapiens) (UniProt P01127)
Protocol Summary: filter
Condition Details: as 4149-8_379; 2'-OMe 13
Property Measured: Kd
Could you write the number and then its unit?

## Task Would you kindly share the measured Kd for TTACGTTACCGCGTTTATAGCG [4149-8_421] ?
## Result 0.019 nM

* * *

Test system: VEGF-121 (Homo sapiens), P15692-9
Sequence: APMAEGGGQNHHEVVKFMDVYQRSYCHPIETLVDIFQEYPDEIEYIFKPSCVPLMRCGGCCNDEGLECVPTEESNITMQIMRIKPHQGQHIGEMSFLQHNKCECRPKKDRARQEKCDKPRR
Protocol Summary: filter
Condition Details: P=Nap-dU; 2'-OMe A28
Property Measured: Kd
# do not omit the unit; it follows the number

## Task Any idea what Kd came out for AGCCGTTCAAGTGCTTGTAGGATTTAAATGGA [4867-31_92] on VEGF-121 (Homo sapiens), P15692-9?
## Result 8.87 nM

* * *

Target Desc: PDGF-BB (platelet-derived growth factor BB) (Homo sapiens)
Protocol Summary: filter
Condition Details: C3 spacer at 8; NapdU at 9,11,13,19,21; C3 spacer walk
Property Measured: pKd
Kindly note that pKd refers to -log10 of the concentration in mol/L and answer with the value alone.

## Task For the sequence CGACAGCTGTATGCACATCT [5169-4_66] , what pKd is on record?
## Result 8.07
